meta.source: patent US9511073B2

Method summary: Pharmacokinetic assay: plasma concentration by LC/MS/MS after single intravenous or peroral dose of 3 mg/kg
Assay type: in vivo
Test conditions: mouse, plasma; 3 mg/kg IV dosing in mice; read-out: AUC
Method: The pharmacokinetic profiles of selected comparator compounds A-N in Table 6 and compounds of the invention were determined by measuring the compound concentration in plasma by LC/MS/MS following a single intravenous or peroral administration of the compounds at a dose of 3 mg/kg. The concentrations described are the mean plasma concentrations at each time point from three animals. Intravenous dose formulation was administered as a single bolus dose through the tail vein. […]
Quantity kind: AUC (ng·h/mL)

{"Compound": "Cc1ccc(-c2csc(COc3ccc(F)c(C(N)=O)c3F)n2)cn1", "Quantity unit": "ng·h/mL", "AUC": 400}
{"Compound": "NC(=O)c1c(F)ccc(OCc2nc(-c3ccc(Cl)cc3)no2)c1F", "Quantity unit": "ng·h/mL", "AUC": 900}

a = COc1cnc(-c2csc(COc3ccc(F)c(C(N)=O)c3F)n2)cn1
b = NC(=O)c1c(F)ccc(OCc2nc(-c3cnc(Cl)nc3)cs2)c1F
// pick min by AUC: a , b // respond with label for picked entry
b

1 = NC(=O)c1c(F)ccc(OCc2nc(-c3ccc(Cl)nc3)cs2)c1F
2 = Cc1noc(CCc2csc(COc3ccc(F)c(C(N)=O)c3F)n2)n1
3 = CCCc1oc(COc2ccc(F)c(C(N)=O)c2F)nc1-c1cccc(O)c1
// ascending sort on recorded AUC Reply with the item labels sorted in the order that was asked for.
3, 1, 2
(3: 100 ng·h/mL, 1: 400 ng·h/mL, 2: 800 ng·h/mL)

A = COc1ccc(-c2nc(COc3ccc(F)c(C(N)=O)c3F)sc2-c2ccc(N(C)C)nc2)cc1
B = COc1ncc(-c2csc(COc3ccc(F)c(C(N)=O)c3F)n2)s1
C = C=CCc1oc(COc2ccc(F)c(C(N)=O)c2F)nc1-c1cccc(O)c1
Task field, ranking: reported AUC, descending order. The response must list the labels following the requested ordering.
A, B, C

###

System: Staphylococcus aureus (Isolate ID ATCC 29213)
Method summary: Bacterial assay: MIC by broth microdilution or agar dilution (CLSI), S. aureus ATCC 29213
Assay type: cell-based
Test conditions: Staphylococcus aureus, ATCC29213, read-out: S. aureus MIC (μg/mL) Activity Range, S. aureus (ATCC29213)
Quantity kind: MIC

{"Compound": "CC(Oc1ccc(F)c(C(N)=O)c1F)c1nc(-c2ccc(C(F)(F)F)cn2)c(Br)o1 (stereo not shown) [Compound 54]", "Assay system": "Staphylococcus aureus (Isolate ID ATCC 29213)", "MIC": "0.25 to 1 µg/mL"}
{"Compound": "Cc1ccc(-c2csc(C(CO)Oc3ccc(F)c(C(N)=O)c3F)n2)cn1 (stereo not shown) [Compound 264]", "Assay system": "Staphylococcus aureus (Isolate ID ATCC 29213)", "MIC": "> 16 µg/mL"}
{"Compound": "NC(=O)c1c(F)ccc(OC(C(=O)O)c2nc(-c3ccc(Cl)cc3)co2)c1F (stereo not shown) [Compound 12]", "Assay system": "Staphylococcus aureus (Isolate ID ATCC 29213)", "MIC": "> 16 µg/mL"}

# lookup: MIC of C=CCC(Oc1ccc(F)c(C(N)=O)c1F)c1nc(-c2ccc(C(F)(F)F)cc2)c(Br)o1 (stereo not shown) [Compound 106]
1 to 16 µg/mL

Continue with CC(=O)NCC(Oc1ccc(F)c(C(N)=O)c1F)c1nc(-c2ccc(C(F)(F)F)cc2)c(Br)o1 (stereo not shown) [Compound 283]
1 to 16 µg/mL

# iterate: NC(=O)c1c(F)ccc(OC(COC(=O)CCC(=O)O)c2nc(-c3ccc(C(F)(F)F)cc3)c(Br)o2)c1F (stereo not shown) [Compound 74]
1 to 16 µg/mL

How about Cc1noc(-c2ccc(-c3nc(C(CO)Oc4ccc(F)c(C(N)=O)c4F)oc3Br)cc2)n1 (stereo not shown) [Compound 85] ?
1 to 16 µg/mL
